Test system: U1285
Assay: MTT cytotoxicity, 2D culture, SCLC
Type: cell-based, human
Settings: U1285, 72 h, MTT test
EXPERIMENTAL_ENDPOINT: IC50 (µM)
Give bare numbers, in µM.

So for N.N.[Cl][Pt][Cl] [cisplatin, reference compound] , the logged IC50 turned out to be 9.6
